Source: ChEMBL document CHEMBL1212769

Measurement Description: Cmax in human at 500 […], po measured on day 1
Type: ADME, organism-based
Design: dose 500 mg/kg, route oral
Test Settings: in vivo

{"Smiles Structure": "COc1c(N2C[C@@H](C)C[C@H](N)C2)ccc2c(=O)c(C(=O)O)cn(C3CC3)c12", "Cmax [ng/mL]": 5120}

----------
Measurement Description: Tmax in human at 750 […], po measured on day 10
Assay type: ADME, organism-based
Design: dose 750 mg/kg, route oral
Test Settings: in vivo
Readout Kind: Tmax (h)

{"Smiles Structure": "COc1c(N2C[C@@H](C)C[C@H](N)C2)ccc2c(=O)c(C(=O)O)cn(C3CC3)c12", "Readout Kind": "Tmax", "Obs Value": 1.51}

----------
Measurement Description: Renal clearance in human at 250 […], po measured on day 10
Format: ADME, organism-based, Kidney
Set-up: route oral
Test Settings: in vivo, read-out: CL_renal (converted)
Readout Kind: CL renal (mL/min)

{"Compound": "COc1c(N2C[C@@H](C)C[C@H](N)C2)ccc2c(=O)c(C(=O)O)cn(C3CC3)c12 [NEMONOXACIN]", "Obs Value": 129}

----------
Measurement Description: Cmax in human at 500 […], po measured on day 16
Format: ADME, organism-based
Design: dose 500 mg/kg, route oral
Test Settings: in vivo
Readout Kind: Cmax (ng/mL)

{"Smiles Structure": "COc1c(N2C[C@@H](C)C[C@H](N)C2)ccc2c(=O)c(C(=O)O)cn(C3CC3)c12", "Readout Kind": "Cmax", "Obs Value": 2750}

----------
Measurement Description: AUC (0 to last) in human at 75 mg/kg, po measured on day 1
Format: ADME, organism-based
Set-up: time 0 - last, dose 75 mg/kg, route oral
Test Settings: plasma

{"Smiles Structure": "COc1c(N2C[C@@H](C)C[C@H](N)C2)ccc2c(=O)c(C(=O)O)cn(C3CC3)c12", "AUC(0-t), ng·h/mL": 3780}

----------
Measurement Description: Tmax in human at 500 […], po measured on day 16
Type: ADME, organism-based
Set-up: dose 500 mg/kg, route oral
Test Settings: in vivo
Readout Kind: Tmax

{"Smiles Structure": "COc1c(N2C[C@@H](C)C[C@H](N)C2)ccc2c(=O)c(C(=O)O)cn(C3CC3)c12", "Obs Value": "3.07 h"}

----------
Measurement Description: AUC (0 to last) in human at 75 mg/kg, po measured on day 10
Assay type: ADME, organism-based
Set-up: time 0 - last, dose 75 mg/kg, route oral
Test Settings: plasma

{"Compound": "COc1c(N2C[C@@H](C)C[C@H](N)C2)ccc2c(=O)c(C(=O)O)cn(C3CC3)c12 [NEMONOXACIN]", "AUC(0-t) (ng·h/mL)": 5450}

----------
Measurement Description: Cmax in human at 750 […], po measured on day 1
Format: ADME, organism-based
Set-up: dose 750 mg/kg, route oral
Test Settings: in vivo

{"Compound": "COc1c(N2C[C@@H](C)C[C@H](N)C2)ccc2c(=O)c(C(=O)O)cn(C3CC3)c12 [NEMONOXACIN]", "Cmax [ng/mL]": 5750}

----------
Measurement Description: Tmax in human at 1000 […], po measured on day 10
Format: ADME, organism-based
Design: route oral
Test Settings: in vivo

{"Smiles Structure": "COc1c(N2C[C@@H](C)C[C@H](N)C2)ccc2c(=O)c(C(=O)O)cn(C3CC3)c12", "Tmax / h": 2.07}

----------
Measurement Description: Cmax in human at 750 […], po measured on day 10
Assay type: ADME, organism-based
Design: dose 750 mg/kg, route oral
Test Settings: in vivo
Readout Kind: Cmax (ng/mL)

{"Smiles Structure": "COc1c(N2C[C@@H](C)C[C@H](N)C2)ccc2c(=O)c(C(=O)O)cn(C3CC3)c12", "Readout Kind": "Cmax", "Obs Value": 6820}

----------
Measurement Description: Cmax in human at 500 […], po measured on day 10
Assay type: ADME, organism-based
Set-up: dose 500 mg/kg, route oral
Test Settings: in vivo

{"Smiles Structure": "COc1c(N2C[C@@H](C)C[C@H](N)C2)ccc2c(=O)c(C(=O)O)cn(C3CC3)c12", "Cmax (ng/mL)": 5560}

----------
Measurement Description: Cmax in human at 1000 […], po measured on day 10
Format: ADME, organism-based
Set-up: dose 1000 mg/kg, route oral
Test Settings: in vivo
Readout Kind: Cmax

{"Molecule": "COc1c(N2C[C@@H](C)C[C@H](N)C2)ccc2c(=O)c(C(=O)O)cn(C3CC3)c12 [NEMONOXACIN]", "Obs Value": "8200 ng/mL"}

----------
Measurement Description: Tmax in human at 500 […], po measured on day 1
Type: ADME, organism-based
Parameters: route oral
Test Settings: in vivo
Readout Kind: Tmax

{"Smiles Structure": "COc1c(N2C[C@@H](C)C[C@H](N)C2)ccc2c(=O)c(C(=O)O)cn(C3CC3)c12", "Obs Value": "1 h"}

----------
Measurement Description: Oral clearance in human at 250 mg/kg measured on day 1
Type: ADME, organism-based
Set-up: dose 250 mg/kg
Test Settings: in vivo

{"Smiles Structure": "COc1c(N2C[C@@H](C)C[C@H](N)C2)ccc2c(=O)c(C(=O)O)cn(C3CC3)c12", "CL/F": "279 mL/min"}

----------
Measurement Description: Clearance in human assessed as compound recovered in urine at 500 mg/kg, po measured on day 1 up to 24 hrs post dose
Format: ADME, organism-based
Set-up: dose 500 mg/kg, route oral
Test Settings: read-out: amount in urine
Readout Kind: dose excreted at 24 h (%)

{"Compound": "COc1c(N2C[C@@H](C)C[C@H](N)C2)ccc2c(=O)c(C(=O)O)cn(C3CC3)c12 [NEMONOXACIN]", "Readout Kind": "dose excreted at 24 h", "Units Label": "%", "Obs Value": 42.2}

----------
Measurement Description: AUC (0 to last) in human at 1000 […], po measured on day 1
Format: ADME, organism-based
Design: time 0 - last, dose 1000 mg/kg, route oral
Test Settings: plasma

{"Smiles Structure": "COc1c(N2C[C@@H](C)C[C@H](N)C2)ccc2c(=O)c(C(=O)O)cn(C3CC3)c12", "Units Label": "ng·h/mL", "AUC(0-t)": 59600}

----------
Measurement Description: Renal clearance in human at 1000 […], po measured on day 1
Format: ADME, organism-based, Kidney
Design: route oral
Test Settings: in vivo, read-out: CL_renal (converted)

{"Smiles Structure": "COc1c(N2C[C@@H](C)C[C@H](N)C2)ccc2c(=O)c(C(=O)O)cn(C3CC3)c12", "CL renal / mL/min": 125}

----------
Measurement Description: AUC (0 to last) in human at 500 mg/kg, po measured on day 16
Assay type: ADME, organism-based
Parameters: time 0 - last, dose 500 mg/kg, route oral
Test Settings: plasma
Readout Kind: AUC(0-t) (ng·h/mL)

{"Compound": "COc1c(N2C[C@@H](C)C[C@H](N)C2)ccc2c(=O)c(C(=O)O)cn(C3CC3)c12 [NEMONOXACIN]", "Obs Value": 26000}

----------
Measurement Description: Renal clearance in human at 75 […], po measured on day 1
Assay type: ADME, organism-based, Kidney
Set-up: route oral
Test Settings: in vivo, read-out: CL_renal (converted)
Readout Kind: CL renal (mL/min)

{"Smiles Structure": "COc1c(N2C[C@@H](C)C[C@H](N)C2)ccc2c(=O)c(C(=O)O)cn(C3CC3)c12", "Obs Value": 198}

----------
Measurement Description: Clearance in human assessed as compound recovered in urine at 1000mg/kg, po measured on day 10 up to 24 hrs post dose
Type: ADME, organism-based
Test Settings: read-out: amount in urine
Readout Kind: dose excreted at 24 h (%)

{"Compound": "COc1c(N2C[C@@H](C)C[C@H](N)C2)ccc2c(=O)c(C(=O)O)cn(C3CC3)c12 [NEMONOXACIN]", "Readout Kind": "dose excreted at 24 h", "Units Label": "%", "Obs Value": 48.6}

----------
Measurement Description: Oral clearance in human at 500 mg/kg measured on day 10
Format: ADME, organism-based
Set-up: dose 500 mg/kg
Test Settings: in vivo

{"Smiles Structure": "COc1c(N2C[C@@H](C)C[C@H](N)C2)ccc2c(=O)c(C(=O)O)cn(C3CC3)c12", "CL/F": "184 mL/min"}

----------
Measurement Description: AUC (0 to 24 hrs) in human at 75 mg/kg, po measured on day 10
Format: ADME, organism-based
Set-up: time < 24 hr, dose 75 mg/kg, route oral
Test Settings: plasma

{"Compound": "COc1c(N2C[C@@H](C)C[C@H](N)C2)ccc2c(=O)c(C(=O)O)cn(C3CC3)c12 [NEMONOXACIN]", "AUC at 24 h": "4270 ng·h/mL"}
